Source of measurements: paper PMC3871601

Target: HoblOBP3 (Holotrichia oblita, UniProt G9BWQ7)
Sequence (G9BWQ7 entry or part of it): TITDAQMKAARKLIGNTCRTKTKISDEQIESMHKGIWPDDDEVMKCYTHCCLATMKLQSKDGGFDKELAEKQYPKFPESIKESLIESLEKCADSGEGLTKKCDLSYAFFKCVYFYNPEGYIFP
Assay: biochemical
Format: binding
Conditions: pH 7.4; HoblOBP3; at the ligand concentration 24 µM; protein and 1-NPN both 2 µM; read-out: Int (fluorescence intensity as percent of the initial fluorescence)
Description: N-phenyl-1-naphthylamine (1-NPN) was selected as a probe to measure the affinity of the 1-NPN fluorescent ligand to proteins. A 1-cm light path quartz cuvette was used, and the fluorescence spectra were recorded on a Lengguang 970 CRT spectrofluorimeter (Shanghai Jingmi, China) at room temperature in a right angle configuration. […] 1-NPN was excited at 337 nm and the emission spectra were recorded between 350 and 550 nm. Spectra were recorded using high-speed scanning. […]
Below: a set of entries, each annotated with reported activity at 24 µM.
Express it in %; write the number only.

Sample records with activity at 24 µM:
Q: Given the entry "O=C1C=CCCC1" , report its measured activity at 24 µM.
Result: 70

Q: Given the entry CC(C)(C)C1CCC(O)CC1 (stereo not drawn) , report its measured activity at 24 µM.
Result: 68

Q: Given the entry "CCCCCCCCCO" , report its measured activity at 24 µM.
Result: 71

Q: Given the entry CCC/C=C\CO [cis-2-Hexen-1-ol] , report its measured activity at 24 µM.
Result: 70

Q: Given the entry "CCCCCC=O" , report its measured activity at 24 µM.
Result: 68

Now consider the entry below.
Q: Given the entry CCCCOC(=O)c1ccccc1 [Butyl Benzoate] , report its measured activity at 24 µM.
Result: 69

====

Target: HoblOBP4 (Holotrichia oblita)
Sequence (G9BWQ8 entry or part of it): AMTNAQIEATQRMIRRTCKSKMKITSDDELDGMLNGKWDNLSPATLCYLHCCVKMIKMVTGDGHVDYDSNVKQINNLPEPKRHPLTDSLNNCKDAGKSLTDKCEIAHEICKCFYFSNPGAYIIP
Test: biochemical
Assay type: binding
pIC50: −log10 of the molar value.
Below: a set of entries, each annotated with reported pIC50.

Sample records with pIC50:
Q: Given the entry C=C(C)C1CC=C(C)CC1 (stereo not drawn) , report its measured pIC50.
Result: < 4.30

Q: Given the entry "C=CCc1ccc(O)c(OC)c1" , report its measured pIC50.
Result: < 4.30

Now consider the entry below.
Q: Given the entry "C=C1CC/C=C(\C)CC[C@@H]2[C@@H]1CC2(C)C" , report its measured pIC50.
Result: < 4.30
